- assay-procedure: clinical
- measurement-context: human, in vivo, po, 150 mg/m2, AUC0–24h, day 1
readout-kind: AUC(0-t) (ng·h/mL)

1. CNC(=O)c1cc(Oc2ccc(NC(=O)Nc3ccc(Cl)c(C(F)(F)F)c3)cc2)ccn1 [Sorafenib] :: 28300

----------
- assay-procedure: clinical
- measurement-context: human, in vivo, po, 200 mg/m2, Cmax, day 1
readout-kind: Cmax (ng/mL)

1) CNC(=O)c1cc(Oc2ccc(NC(=O)Nc3ccc(Cl)c(C(F)(F)F)c3)cc2)ccn1 :: 1600

----------
- assay-procedure: clinical
- measurement-context: human, in vivo
readout-kind: half-life

1. CNC(=O)c1cc(Oc2ccc(NC(=O)Nc3ccc(Cl)c(C(F)(F)F)c3)cc2)ccn1 :: ≥ 24 h

----------
- assay-procedure: clinical
- measurement-context: human, in vivo, 200 mg/m2, median steady-state AUC0–12h
readout-kind: AUC(0-t) (ng·h/mL)

1. CNC(=O)c1cc(Oc2ccc(NC(=O)Nc3ccc(Cl)c(C(F)(F)F)c3)cc2)ccn1 :: 55700

----------
- assay-procedure: clinical
- measurement-context: human, in vivo, po, 130 mg/m2, Cmax, day 1
readout-kind: Cmax (ng/mL)

1) CNC(=O)c1cc(Oc2ccc(NC(=O)Nc3ccc(Cl)c(C(F)(F)F)c3)cc2)ccn1 [Sorafenib] :: 1500

----------
- assay-procedure: clinical
- measurement-context: human, in vivo, po, 200 mg/m2, Cmax, steady state
readout-kind: Cmax (ng/mL)

1. CNC(=O)c1cc(Oc2ccc(NC(=O)Nc3ccc(Cl)c(C(F)(F)F)c3)cc2)ccn1 :: 8300

----------
- assay-procedure: clinical
- measurement-context: human, in vivo, po, […]2, Tmax, day 1
readout-kind: Tmax (h)

1) CNC(=O)c1cc(Oc2ccc(NC(=O)Nc3ccc(Cl)c(C(F)(F)F)c3)cc2)ccn1 [Sorafenib] :: 5

----------
- assay-procedure: clinical
- measurement-context: human, in vivo, 250 mg/m2, Tmax, day 1
readout-kind: Tmax (h)

1. CNC(=O)c1cc(Oc2ccc(NC(=O)Nc3ccc(Cl)c(C(F)(F)F)c3)cc2)ccn1 :: 8

----------
- assay-procedure: clinical
- measurement-context: human, in vivo, 130 mg/m2, AUC0–24h, day 1
readout-kind: AUC(0-t) (ng·h/mL)

1) CNC(=O)c1cc(Oc2ccc(NC(=O)Nc3ccc(Cl)c(C(F)(F)F)c3)cc2)ccn1 :: 20000

----------
- assay-procedure: clinical
- measurement-context: human, in vivo, 200 mg/m2, AUC0–24h, day 1
readout-kind: AUC(0-t)

1) CNC(=O)c1cc(Oc2ccc(NC(=O)Nc3ccc(Cl)c(C(F)(F)F)c3)cc2)ccn1 [Sorafenib] :: 19000 ng·h/mL

----------
- assay-procedure: clinical
- measurement-context: human, in vivo, po, 200 mg/m2, AUC0–12h, steady state
readout-kind: AUC(0-t) (ng·h/mL)

1) CNC(=O)c1cc(Oc2ccc(NC(=O)Nc3ccc(Cl)c(C(F)(F)F)c3)cc2)ccn1 [Sorafenib] :: 60200

----------
- assay-procedure: clinical
- measurement-context: human, in vivo, po, 200 mg/m2, AUC0–24h, day 1
readout-kind: AUC(0-t) (ng·h/mL)

1. CNC(=O)c1cc(Oc2ccc(NC(=O)Nc3ccc(Cl)c(C(F)(F)F)c3)cc2)ccn1 :: 27300
